Values were extracted from ChEMBL document CHEMBL5303304.

System: HEK-293T
Assay: Incucyte cell viability with HEK293T; also: unitless GR value; below 1 slowed growth and below 0 cell loss
Type: toxicity, cell-based
Details: human, 18 h, 10 µM, compound concentration 10 uM, replicate number 2
This listing pairs molecules with measured Growth Rate.
Provide a numeric answer; units are not to be included.

Worked examples, 4 molecules total:
# MOLECULE, Growth Rate
data = [
    ("CNc1nc(-c2cc(C(=O)N3CCN(Cc4ccc(Cl)cc4)CC3)c(Cl)cn2)cs1", 0.14),
    ("N#Cc1cccc(-c2nc(-c3cccnc3)no2)c1", 0.95),
    ("CC(C)c1cnc(NC(=O)Cc2ccccc2)s1", 0.68),
    ("CCc1cc2c(cc1-c1cccc(S(=O)(=O)F)c1)C(C)(C)c1[nH]c3cc(C#N)ccc3c1C2=O", 0.95),
]

Exercise: Endpoint output: Growth Rate of CCn1ccc(Nc2ncc3c(n2)-c2c(nn(C)c2-c2ccc(-c4cnn(C)c4)cc2Cl)CC3)n1 . Value?
Solution: -0.43

Exercise: # Growth Rate lookup, item CC1(C)Cc2nc(C3CCCC3)c([C@@H](F)c3ccc(C(F)(F)F)cc3)c(C3CCCCC3)c2[C@@H](O)C1
Solution: 0.91

Exercise: Which Growth Rate is listed for Cc1ccc(CNc2ncnc3ccc(-c4ccc(CO)o4)cc23)o1 ?
Solution: 0.69

Exercise: Any idea what its Growth Rate is? The molecule is Cc1ncsc1-c1ccc(CNC(=O)[C@@H]2C[C@@H](O)CN2C(=O)[C@@H](NC(=O)CCCCNC(=O)c2ccc(-c3ccc(N4CCN(C)CC4)c(NC(=O)c4c[nH]c(=O)cc4C(F)(F)F)c3)cc2)C(C)(C)C)cc1
Solution: 0.86

Exercise: Would you kindly share the measured Growth Rate for CNC(=O)c1c(F)cccc1Nc1nc(Nc2cc3c(cc2OC)CCN3C(=O)CN(C)C)nc2[nH]ccc12 ?
Solution: -0.03

Exercise: # get_value(readout='Growth Rate', item= CC(C)S(=O)(=O)c1ccccc1Nc1nc(N[C@@H]2CCCN(CCCCCCCNC(=O)COc3cccc4c3C(=O)N(C3CCC(=O)NC3=O)C4=O)C2)ncc1Cl (some centres undefined) )
Solution: -0.49

Exercise: Name the reported Growth Rate value associated with the molecule CC(C)NC(=O)[C@H]1CCC[C@H]1Nc1nc(Nc2ccc(C(=O)N(C)C3CCN(C)CC3)cc2)ncc1Cl
Solution: 0.56

Exercise: Reported Growth Rate for COc1c(-c2cn(C3CCC(=O)NC3=O)nn2)csc1C(=O)N1CCCC1 (centres undefined) : what is it?
Solution: 0.9

Exercise: Reported Growth Rate for CNC(=O)c1ccc2c(c1)NC(=O)/C2=C(\Nc1ccc(CN2CCCCC2)cc1)c1ccccc1.Cl.O : what is it?
Solution: 0.71

Exercise: What value of Growth Rate has been recorded for this entry: Cl.O=C(O)CCCN1CCC[C@H]1COc1ccc(Oc2ccc(Cl)cc2)cc1
Solution: 0.37

Exercise: State the recorded Growth Rate for this entry: O=C(Nc1ccccc1C(=O)O)c1cc(S(=O)(=O)c2ccccc2)ccc1Cl
Solution: 0.41

Exercise: For Cc1nnsc1C(=O)Nc1ccc(-n2nc(C(F)(F)F)cc2C(F)(F)F)cc1 , what is its reported Growth Rate?
Solution: 0.39

Exercise: Look up Growth Rate: CN(C)CCCn1cc(C2=C(c3c[nH]c4ccccc34)C(=O)NC2=O)c2ccccc21 [GF-109203]
Solution: 0.99

Exercise: Item under review: OC(c1ccc(-c2ccc(CN3CCN(Cc4ccncc4)CC3)cc2)c(F)c1)(C(F)(F)F)C(F)(F)F . Reported Growth Rate?
Solution: 0.23

Exercise: Would you mind telling me what Growth Rate value was observed for COCCOCn1c(S(C)(=O)=O)nc2c1c(=O)n(C)c(=O)n2C ?
Solution: 0.92

Exercise: Dear colleague, I am looking for the recorded Growth Rate of the following molecule: CC/C(=C(\c1ccccc1)c1ccc(OCCN(C)C)cc1)c1ccccc1.O=C(O)CC(O)(CC(=O)O)C(=O)O [TAMOXIFEN CITRATE]
Solution: 0.45
